- measured_target: T1, full length PEAK3 (PEAK3^FL, residues 1-473), from insect cells, phosphorylated by Src (human, UniProt Q6ZS72 1-473, phosphoserine at S69; phosphotyrosine at Y24 (by Src in vitro, shown by MS/MS); other Src sites not stated; biotin (EZ-Link NHS-PEG4-Biotin, 1:1 molar ratio))
- T1 construct: As Sm27, with Src phosphorylation before immobilisation; also called PEAK3-FL (+ Src phosphorylation); source: Sf21 insect cells, purified as a complex with insect 14-3-3ε,ζ; phosphorylated in vitro with recombinant Src kinase domain
- T1 sequence (looked up): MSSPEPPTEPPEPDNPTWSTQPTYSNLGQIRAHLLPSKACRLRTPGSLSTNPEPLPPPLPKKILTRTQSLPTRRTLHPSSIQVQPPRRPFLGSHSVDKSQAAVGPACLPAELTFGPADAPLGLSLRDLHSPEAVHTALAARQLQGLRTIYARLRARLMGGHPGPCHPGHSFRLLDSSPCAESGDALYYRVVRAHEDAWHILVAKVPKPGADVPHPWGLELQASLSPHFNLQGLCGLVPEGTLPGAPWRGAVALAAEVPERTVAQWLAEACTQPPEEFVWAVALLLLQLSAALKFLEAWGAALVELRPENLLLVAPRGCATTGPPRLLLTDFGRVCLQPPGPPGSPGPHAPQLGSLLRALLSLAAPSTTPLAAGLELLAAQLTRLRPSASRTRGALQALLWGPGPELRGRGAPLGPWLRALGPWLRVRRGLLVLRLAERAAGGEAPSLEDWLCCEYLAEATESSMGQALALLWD
- assay_remarks: SPR; biotinylated PEAK proteins (with or without Src phosphorylation) captured with a biotin CAPture kit, CrkII NSH3 as analyte; Biacore 8K+, 20 °C, HBS-TP (150 mM NaCl); 1 M NaCl regeneration; steady state
- measurement_context: both partners purified
pKd: −log10 of the molar value.
quantity_measured: pKd

* CrkII N-terminal SH3 domain (CrkII^NSH3, residues 134-191) (domain or fragment, human, UniProt P46108-1 134-191, looked up, human CrkII NSH3 domain, UniProt P46108-1, residues 134-191; Amine coupled to a CM5 chip in a2; analyte in a4; in the syringe in ITC) AEYVRALFDFNGNDEEDLPFKKGDILRIRDKPEEQWWNAEDSEGKRGMIPVPYVEKYR | 5.16
